assay: NCI Yeast Anticancer Drug Screen. Data for the sgs1 mgt1 strain (AID 161); conditions: S. cerevisiae sgs1 mgt1 strain, at 50.0 µM, active compounds read high
The panel holds about 79,000 compounds, 15% with a hit somewhere; the sample as a whole holds those more often.
Threshold rule: growth inhibition greater than or equal to -20% is Criterion met; below that, Criterion not met.

Request: Assess whether reported growth inhibition for `C/C(=N\NC(=S)Nc1cccc2cccc(S(=O)(=O)O)c12)c1ccccn1` sits at -20% or higher.
Response: Criterion met

Request: Assess whether reported growth inhibition for CC12CC(=O)C3C(CCC4=CC(=O)CCC43C)C1CC=C2CC(=O)O (configuration not stated) sits at -20% or higher.
Response: Criterion not met

Request: Assess whether reported growth inhibition for CN(C)c1ccc(C2SCC(=O)N2NS(=O)(=O)c2cccc(C(=O)O)c2)cc1 (configuration not stated) sits at -20% or higher.
Response: Criterion met
